Source of measurements: patent US8022099B2

Ki values for the compounds below.
assay_target: human NK3 receptor (Homo sapiens, UniProt P29371)
Sequence (P29371 1-465): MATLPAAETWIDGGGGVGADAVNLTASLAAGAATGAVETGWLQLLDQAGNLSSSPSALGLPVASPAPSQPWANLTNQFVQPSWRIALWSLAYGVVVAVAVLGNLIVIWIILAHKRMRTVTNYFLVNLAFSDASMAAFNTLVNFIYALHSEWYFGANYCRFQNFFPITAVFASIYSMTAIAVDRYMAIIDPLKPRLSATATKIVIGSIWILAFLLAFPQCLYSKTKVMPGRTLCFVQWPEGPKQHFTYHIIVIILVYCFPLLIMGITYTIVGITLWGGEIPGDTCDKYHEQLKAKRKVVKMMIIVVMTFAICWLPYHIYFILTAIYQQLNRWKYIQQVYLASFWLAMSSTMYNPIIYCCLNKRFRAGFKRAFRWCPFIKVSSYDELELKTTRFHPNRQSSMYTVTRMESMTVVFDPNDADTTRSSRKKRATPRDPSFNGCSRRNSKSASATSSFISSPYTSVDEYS
test: [3H]SR142801 competition binding assay
recorded_conditions: hNK3 receptor binding, [3H]SR142801, membranes from HEK293 cells transiently expressing recombinant human NK3 receptor
Experimental: [^3H]SR142801 Competition Binding Assay hNK3 receptor binding experiment were performed using [^3H]SR142801 (Catalog No. TRK1035, specific activity: 74.0 Ci/mmol, Amersham, GE Healthcare UK limited, Buckinghamshire, UK) and membrane isolated from HEK293 cells transiently expressing recombinant human NK3 receptor. […] Nonspecific binding was measured in the presence of 10 μM SB222200 for both radioligands. […]
Please format your answer as a value with the unit trailing.

Answered examples (2):
- compound: "CN(Cc1ccc(C(F)(F)F)c(F)c1)[C@H]1CN(C(=O)N2CCN(CCO)CC2)C[C@@H]1c1ccc(Cl)c(Cl)c1 (racemic) [Example 67]"
  Ki: "6.2 nM"
- compound: "CN(C)CCCN(C)CC(=O)N1C[C@H](c2ccc(Cl)c(Cl)c2)[C@@H](N(C)Cc2ccc(C(F)(F)F)c(F)c2)C1 (racemic) [Example 126]"
  Ki: "80.5 nM"

### Prompt Can you share its Ki? I mean this compound: CNCCCCC(=O)N1C[C@H](c2ccc(Cl)c(Cl)c2)[C@@H](N(C)Cc2ccc(C(F)(F)F)c(F)c2)C1 (racemic) [Example 86]
### Response 97.6 nM

====

assay_target: human NK3 receptor (Homo sapiens, UniProt P29371)
test: [3H]SR142801 competition binding assay
recorded_conditions: hNK3 receptor binding, [3H]SR142801, membranes from HEK293 cells transiently expressing recombinant human NK3 receptor
pKi values for the molecules below.
Expect pKi as a plain number equal to -log10 of the molar concentration.

Answered examples (2):
- molecule: "CN(Cc1ccc(C#N)c(F)c1)[C@H]1CN(C(=O)N2CCN(S(C)(=O)=O)CC2)C[C@@H]1c1ccc(Cl)c(Cl)c1 (racemic)"
  obs_value: 7.66
- molecule: "CN(Cc1ccc(C(F)(F)F)c(F)c1)[C@H]1CN(C(=O)CN2CCC(N3CCCCC3=O)CC2)C[C@@H]1c1ccc(Cl)c(Cl)c1 (racemic)"
  obs_value: 7.83

Next:
### Prompt Can you share its pKi? I mean this molecule: CN(Cc1ccc(C(F)(F)F)c(F)c1)[C@H]1CN(C(=O)CCCCn2ccnc2)C[C@@H]1c1ccc(Cl)c(Cl)c1 (racemic)
### Response 7.24

====

assay_target: human NK3 receptor (Homo sapiens, UniProt P29371)
Construct: expressed in transfected cells; host or cells: HEK293 cells (transient expression), membrane preparation
test: [3H]SR142801 competition binding assay
recorded_conditions: hNK3 receptor binding, [3H]SR142801, membranes from HEK293 cells transiently expressing recombinant human NK3 receptor
quantity_kind: Ki

Answered examples (2):
- molecule: "CN(Cc1ccc(C(F)(F)F)c(F)c1)[C@H]1CN(C(=O)CN2CCN(CCCO)CC2)C[C@@H]1c1ccc(Cl)c(Cl)c1 (racemic) [Example 129]"
  obs_value: "0.0171 µM"
- molecule: "CN(CCC#N)CC(=O)N1C[C@H](c2ccc(Cl)c(Cl)c2)[C@@H](N(C)Cc2ccc(C(F)(F)F)c(F)c2)C1 (racemic) [Example 128]"
  obs_value: "0.072 µM"

Next:
### Prompt Can you share its Ki? I mean this molecule: CN(Cc1ccc(C(F)(F)F)c(F)c1)[C@H]1CN(C(=O)N2CCCN(S(C)(=O)=O)CC2)C[C@@H]1c1ccc(Cl)c(F)c1 (racemic) [Example 82]
### Response 0.0397 µM

====

assay_target: human NK3 receptor (Homo sapiens, UniProt P29371)
test: [3H]SR142801 competition binding assay
recorded_conditions: hNK3 receptor binding, [3H]SR142801, membranes from HEK293 cells transiently expressing recombinant human NK3 receptor
quantity_kind: Ki (nM)
Respond with the bare value in nM.

- compound: "C[C@H]1CN(C(=O)N2C[C@H](c3ccc(Cl)c(Cl)c3)[C@@H](N(C)Cc3ccc(C(F)(F)F)c(F)c3)C2)CCN1S(C)(=O)=O (mixture of isomers)"
  units: "nM"
  obs_value: 15.4
- compound: "CN(Cc1ccc(Cl)c(F)c1)[C@H]1CN(C(=O)N2CCN(S(C)(=O)=O)CC2)C[C@@H]1c1ccc(Cl)cc1 (racemic)"
  units: "nM"
  obs_value: 69.9

### Prompt Can you share its Ki? I mean this compound: CN(Cc1ccc(C(F)(F)F)c(F)c1)[C@H]1CN(C(=O)CN2CCN(CCC#N)CC2)C[C@@H]1c1ccc(Cl)c(Cl)c1 (racemic)
### Response 11.2

====

log10(Ki) values for the molecules below.
assay_target: human NK3 receptor (Homo sapiens, UniProt P29371)
test: [3H]SR142801 competition binding assay
recorded_conditions: hNK3 receptor binding, [3H]SR142801, membranes from HEK293 cells transiently expressing recombinant human NK3 receptor
Experimental: [^3H]SR142801 Competition Binding Assay hNK3 receptor binding experiment were performed using [^3H]SR142801 (Catalog No. TRK1035, specific activity: 74.0 Ci/mmol, Amersham, GE Healthcare UK limited, Buckinghamshire, UK) and membrane isolated from HEK293 cells transiently expressing recombinant human NK3 receptor. […] Nonspecific binding was measured in the presence of 10 μM SB222200 for both radioligands. […]
All values: base-10 log of Ki in µM.

Answered examples (5):
- molecule: "CN(Cc1ccc(C(F)(F)F)c(F)c1)[C@H]1CN(C(=O)N2CCN(CCCO)CC2)C[C@@H]1c1ccc(Cl)c(Cl)c1 (racemic)"
  obs_value: -2.52
- molecule: "CN(Cc1ccc(C(F)(F)F)c(F)c1)[C@H]1CN(C(=O)N2CCN(c3ccccc3C#N)CC2)C[C@@H]1c1ccc(Cl)c(Cl)c1 (racemic)"
  obs_value: -1.98
- molecule: "CN(Cc1ccc(-c2ccccc2)cc1)[C@H]1CN(C(=O)N2CCN(S(C)(=O)=O)CC2)C[C@@H]1c1ccc(Cl)cc1 (racemic)"
  obs_value: -1.11
- molecule: "CN(Cc1ccc(F)c(F)c1)[C@H]1CN(C(=O)N2CCN(S(C)(=O)=O)CC2)C[C@@H]1c1ccc(Cl)c(Cl)c1 (racemic)"
  obs_value: -1.28
- molecule: "CN(Cc1ccc2c(c1)OCC2)[C@H]1CN(C(=O)N2CCN(S(C)(=O)=O)CC2)C[C@@H]1c1ccc(Cl)c(Cl)c1 (racemic)"
  obs_value: -1.12

Next:
### Prompt Can you share its log10(Ki)? I mean this molecule: CN(Cc1ccc(C(F)(F)F)c(F)c1)[C@H]1CN(C(=O)CCCCN2CCN(S(=O)(=O)N(C)C)CC2)C[C@@H]1c1ccc(Cl)c(Cl)c1 (racemic)
### Response -2.07

====

pKi values for the compounds below.
assay_target: human NK3 receptor (Homo sapiens)
test: [3H]SR142801 competition binding assay
recorded_conditions: hNK3 receptor binding, [3H]SR142801, membranes from HEK293 cells transiently expressing recombinant human NK3 receptor
Expect pKi as a plain number equal to -log10 of the molar concentration.

### Prompt Can you share its pKi? I mean this compound: COCCCCC(=O)N1C[C@H](c2ccc(Cl)c(Cl)c2)[C@@H](N(C)Cc2ccc(C(F)(F)F)c(F)c2)C1 [Example 99]
### Response 7.44

### Prompt Can you share its pKi? I mean this compound: CN(Cc1ccc(C(F)(F)F)c(F)c1)[C@H]1CN(C(=O)CN2CCC(NS(C)(=O)=O)CC2)C[C@@H]1c1ccc(Cl)c(Cl)c1 (racemic) [Example 143]
### Response 7.92

====

assay_target: human NK3 receptor (Homo sapiens, UniProt P29371)
Sequence (P29371 1-465): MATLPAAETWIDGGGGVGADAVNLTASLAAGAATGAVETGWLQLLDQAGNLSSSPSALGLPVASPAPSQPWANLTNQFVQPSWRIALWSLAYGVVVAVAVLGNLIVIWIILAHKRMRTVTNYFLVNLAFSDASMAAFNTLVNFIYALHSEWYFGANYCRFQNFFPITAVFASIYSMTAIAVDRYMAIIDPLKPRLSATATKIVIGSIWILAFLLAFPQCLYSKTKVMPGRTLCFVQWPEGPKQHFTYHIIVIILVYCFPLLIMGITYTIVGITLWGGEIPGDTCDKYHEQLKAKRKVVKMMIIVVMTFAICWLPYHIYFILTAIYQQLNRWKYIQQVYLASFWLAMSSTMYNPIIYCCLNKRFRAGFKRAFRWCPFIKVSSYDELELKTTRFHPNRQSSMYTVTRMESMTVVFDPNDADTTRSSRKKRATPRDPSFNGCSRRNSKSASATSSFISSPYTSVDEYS
test: [3H]SR142801 competition binding assay
recorded_conditions: hNK3 receptor binding, [3H]SR142801, membranes from HEK293 cells transiently expressing recombinant human NK3 receptor
quantity_kind: pKi
Expect pKi as a plain number equal to -log10 of the molar concentration.

- molecule: "CN(Cc1ccc(C(F)(F)F)c(F)c1)[C@H]1CN(C(=O)CCCCN2CCNCC2)C[C@@H]1c1ccc(Cl)c(Cl)c1 (racemic) [Example 88]"
  pKi: 7.61
- molecule: "CN(Cc1ccc(Cl)c(Cl)c1)[C@H]1CN(C(=O)N2CCN(S(C)(=O)=O)CC2)C[C@@H]1c1ccc(Cl)cc1 (racemic) [Example 19]"
  pKi: 7.09

Next:
### Prompt Can you share its pKi? I mean this molecule: CN(Cc1ccc(Cl)cc1)[C@H]1CN(C(=O)N2CCN(S(C)(=O)=O)CC2)C[C@@H]1c1ccc(Cl)c(Cl)c1 (racemic) [Example 33]
### Response 7.47
